molecular target: hamster SUR1 (Cricetus cricetus, UniProt Q09427); construct: expressed in transfected cells; host or cells: COS-1 cells, transient (pcDNA vector); assay: In vitro binding affinity to rodent KATP channels: SUR1 ([3H]glibenclamide displacement, COS cell membranes); details: hamster SUR1 in COS cell membranes; read-out: Affinity to SUR 1 (converted)
Sequence (Q09427 whole entry): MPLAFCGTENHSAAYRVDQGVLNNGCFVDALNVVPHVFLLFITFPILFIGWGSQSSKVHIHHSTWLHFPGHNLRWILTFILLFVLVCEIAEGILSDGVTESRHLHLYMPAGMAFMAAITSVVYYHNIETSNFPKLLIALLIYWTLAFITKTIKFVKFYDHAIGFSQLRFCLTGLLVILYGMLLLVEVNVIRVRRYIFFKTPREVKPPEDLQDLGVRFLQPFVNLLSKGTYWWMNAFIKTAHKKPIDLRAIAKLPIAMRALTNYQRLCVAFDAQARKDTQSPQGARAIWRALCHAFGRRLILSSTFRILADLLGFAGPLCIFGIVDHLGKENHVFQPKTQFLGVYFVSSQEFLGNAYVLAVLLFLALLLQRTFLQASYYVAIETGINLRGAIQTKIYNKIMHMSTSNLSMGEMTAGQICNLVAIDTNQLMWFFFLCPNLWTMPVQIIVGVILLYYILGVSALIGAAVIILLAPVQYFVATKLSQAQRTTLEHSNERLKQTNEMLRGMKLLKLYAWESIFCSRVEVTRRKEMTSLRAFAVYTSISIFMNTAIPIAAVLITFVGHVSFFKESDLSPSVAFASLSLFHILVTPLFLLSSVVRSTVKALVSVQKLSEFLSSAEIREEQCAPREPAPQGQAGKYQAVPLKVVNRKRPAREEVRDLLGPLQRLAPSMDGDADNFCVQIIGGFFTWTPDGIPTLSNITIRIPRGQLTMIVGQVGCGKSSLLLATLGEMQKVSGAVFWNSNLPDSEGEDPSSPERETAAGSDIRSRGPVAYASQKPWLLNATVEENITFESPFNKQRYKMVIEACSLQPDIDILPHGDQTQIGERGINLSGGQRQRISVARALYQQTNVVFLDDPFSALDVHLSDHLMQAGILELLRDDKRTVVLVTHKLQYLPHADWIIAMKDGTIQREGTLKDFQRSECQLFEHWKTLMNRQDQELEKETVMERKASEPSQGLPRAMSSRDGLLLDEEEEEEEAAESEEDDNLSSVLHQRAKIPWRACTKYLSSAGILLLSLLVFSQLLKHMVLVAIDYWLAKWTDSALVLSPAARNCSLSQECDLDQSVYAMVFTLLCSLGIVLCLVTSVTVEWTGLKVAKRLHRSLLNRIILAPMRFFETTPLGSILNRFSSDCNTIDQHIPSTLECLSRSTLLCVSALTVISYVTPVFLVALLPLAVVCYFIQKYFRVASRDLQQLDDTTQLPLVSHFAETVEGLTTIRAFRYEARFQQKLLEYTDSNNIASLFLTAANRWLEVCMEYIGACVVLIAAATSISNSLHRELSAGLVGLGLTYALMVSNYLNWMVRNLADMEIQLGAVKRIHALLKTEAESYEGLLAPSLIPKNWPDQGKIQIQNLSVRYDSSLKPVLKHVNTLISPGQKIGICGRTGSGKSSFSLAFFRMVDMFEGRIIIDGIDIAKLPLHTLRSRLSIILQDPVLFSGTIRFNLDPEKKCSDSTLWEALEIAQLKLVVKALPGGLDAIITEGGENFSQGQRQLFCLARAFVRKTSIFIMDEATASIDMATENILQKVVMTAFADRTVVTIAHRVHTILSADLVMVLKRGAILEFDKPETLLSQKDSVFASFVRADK
property_label: Ki (nM)
State the answer as a number, implicitly in nM.

# count of solved cases: 3
CNC(=NS(=O)(=O)c1ccc(C(F)(F)F)cc1)N1CC(c2ccccc2)C(c2ccc(Cl)cc2)=N1 (stereo not shown): 501
O=C(NN1CCCCC1)c1nc(-c2ccc(Cl)cc2Cl)n(-c2ccc(Cl)cc2)c1CO: 100000
O=C(NN1CCCCC1)c1cn(-c2ccc(C(F)(F)F)cc2)c(-c2ccc(Cl)cc2Cl)n1: 2510

Would you kindly look at the next entry?
In: Query (molecule): CCCCCOc1c(OC)ccc2cc(C(=O)NCc3ccc4c(c3)OCO4)c(=O)[nH]c12 [JTE-907, reference compound] ; field requested: Ki
Out: 794

---

target: rat SUR2A (Rattus norvegicus, UniProt Q63563); assay: In vitro binding affinity to rodent KATP channels: SUR2A ([3H]P1075 / [3H]glibenclamide displacement, COS cell membranes)
Sequence (Q63563 whole entry): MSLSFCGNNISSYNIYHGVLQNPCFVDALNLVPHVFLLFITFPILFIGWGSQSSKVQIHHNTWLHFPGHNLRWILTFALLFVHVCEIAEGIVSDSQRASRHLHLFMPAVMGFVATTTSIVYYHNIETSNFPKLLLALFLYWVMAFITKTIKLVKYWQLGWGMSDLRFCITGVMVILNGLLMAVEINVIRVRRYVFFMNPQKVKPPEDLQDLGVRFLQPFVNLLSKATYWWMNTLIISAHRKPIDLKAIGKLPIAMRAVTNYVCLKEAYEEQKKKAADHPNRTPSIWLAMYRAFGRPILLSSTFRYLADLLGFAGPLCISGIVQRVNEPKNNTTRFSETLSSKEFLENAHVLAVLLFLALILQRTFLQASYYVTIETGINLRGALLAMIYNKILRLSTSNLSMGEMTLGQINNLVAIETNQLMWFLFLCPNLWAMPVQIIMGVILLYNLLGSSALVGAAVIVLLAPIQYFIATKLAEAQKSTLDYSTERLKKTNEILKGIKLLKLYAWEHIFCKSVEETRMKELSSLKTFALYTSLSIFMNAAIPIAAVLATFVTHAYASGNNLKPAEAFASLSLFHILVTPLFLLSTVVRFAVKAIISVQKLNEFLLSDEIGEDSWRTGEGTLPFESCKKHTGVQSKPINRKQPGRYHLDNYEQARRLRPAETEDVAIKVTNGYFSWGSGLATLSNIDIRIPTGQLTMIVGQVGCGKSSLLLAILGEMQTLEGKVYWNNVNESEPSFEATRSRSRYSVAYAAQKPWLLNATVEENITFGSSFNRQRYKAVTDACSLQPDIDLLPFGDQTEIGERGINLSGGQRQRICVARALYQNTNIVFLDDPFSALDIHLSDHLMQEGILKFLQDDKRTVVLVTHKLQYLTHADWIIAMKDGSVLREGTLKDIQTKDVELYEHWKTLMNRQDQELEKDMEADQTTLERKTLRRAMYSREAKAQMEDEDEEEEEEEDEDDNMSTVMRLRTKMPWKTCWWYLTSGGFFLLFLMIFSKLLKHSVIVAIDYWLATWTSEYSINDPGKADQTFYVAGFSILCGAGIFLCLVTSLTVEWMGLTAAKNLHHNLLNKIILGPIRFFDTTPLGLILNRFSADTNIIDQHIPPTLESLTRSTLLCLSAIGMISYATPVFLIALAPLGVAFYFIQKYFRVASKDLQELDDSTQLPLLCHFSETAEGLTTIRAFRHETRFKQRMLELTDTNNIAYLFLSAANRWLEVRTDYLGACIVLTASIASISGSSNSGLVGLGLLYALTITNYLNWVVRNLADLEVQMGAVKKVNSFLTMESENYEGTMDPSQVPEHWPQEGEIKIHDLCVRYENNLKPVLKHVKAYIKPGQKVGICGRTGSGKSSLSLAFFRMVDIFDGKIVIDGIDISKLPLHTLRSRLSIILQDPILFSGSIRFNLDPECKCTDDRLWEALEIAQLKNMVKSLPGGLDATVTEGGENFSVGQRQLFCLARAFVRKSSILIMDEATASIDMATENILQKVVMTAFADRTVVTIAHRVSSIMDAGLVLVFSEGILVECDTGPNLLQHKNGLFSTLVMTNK
property_label: pKi
Reply briefly: the number, and no unit.

O=S(=O)(N=C(NCCCCN1CCCC1)N1CC(c2ccccc2)C(c2ccc(Cl)cc2)=N1)c1ccc(Cl)cc1 (stereo not drawn): 5.4
CNC(=NS(=O)(=O)N1CCCCC1)C1=NN(c2ccc(Cl)cc2)C(c2ccccc2)C1 (stereo not drawn): 4.5
Cc1c(C=C(c2cc(F)cc(F)c2)S(C)(=O)=O)nn(-c2ccc(Cl)cc2Cl)c1-c1ccc(Br)cc1: 4.0
O=S(=O)(N=C(NC1CCNCC1)N1CC(c2ccccc2)C(c2ccc(Cl)cc2)=N1)c1ccc(Cl)cc1 (stereo not drawn): 4.6
Cc1c(C(=O)NC2CCC(O)CC2)nc(-c2ccc(Cl)cc2Cl)n1-c1ccc(Cl)cc1 (stereo not drawn): 5.0
CNC(=NS(=O)(=O)c1ccc(Cl)cc1)N1CC(c2cccnc2)C(c2ccc(Cl)cc2)=N1 (stereo not drawn): 5.4

In: Query (compound): O=S(=O)(N=C(NCc1cccnc1)N1CC(c2ccccc2)C(c2ccc(Cl)cc2)=N1)c1ccc(Cl)cc1 (stereo not drawn) ; field requested: pKi
Out: 5.7

In: Follow-up item: C[C@H](NS(C)(=O)=O)c1ccc(S(=O)(=O)c2ccc(Cl)cc2S(=O)(=O)c2ccccc2F)cc1 [reference compound]
Out: 4.7

In: Follow-up item: `O=C(NN1CCCCC1)c1nc(-c2ccc(Cl)cc2Cl)n(-c2ccc(Cl)cc2)c1CC(F)(F)F`
Out: 5.7

In: Follow-up item: `CCc1c(C(=O)NN2CCCCC2)nc(-c2ccc(Cl)cc2Cl)n1-c1ccc(Br)cc1`
Out: 5.3

In: Follow-up item: `O=C(NN1CCCCC1)c1cn(-c2ccc(Cl)cc2)c(-c2ccc(Cl)cc2Cl)n1`
Out: 5.3

In: Follow-up item: O=C(NN1CCCCC1)C1=NN(c2ccc(Cl)cc2)C(c2ccccc2)C1 (stereo not drawn)
Out: 5.1

In: Follow-up item: CN/C(=N\S(=O)(=O)N(C)C)N1CC(c2cccc(F)c2)C(c2ccc(Cl)cc2)=N1 (stereo not drawn)
Out: 5.3

In: Follow-up item: CN/C(=N\S(=O)(=O)N1CCCCCC1)N1CC(c2ccccc2)C(c2ccc(Cl)cc2)=N1 (stereo not drawn)
Out: 4.9

In: Follow-up item: `O=C(NN1CCCCC1)c1nc(-c2ccc(Cl)cc2Cl)n(-c2ccc(Cl)cc2)c1CO`
Out: 4.7
